Consider the following molecules; for each one, report its IC50.
Biological target: purified recombinant human Aggrecanase-2 (Ag2t-Phe628-Strep) (Homo sapiens, UniProt Q9UNA0)
Construct: the form used is denoted as Ag2t-Phe628-Strep (MW=41,737)
Sequence (Q9UNA0 262-628): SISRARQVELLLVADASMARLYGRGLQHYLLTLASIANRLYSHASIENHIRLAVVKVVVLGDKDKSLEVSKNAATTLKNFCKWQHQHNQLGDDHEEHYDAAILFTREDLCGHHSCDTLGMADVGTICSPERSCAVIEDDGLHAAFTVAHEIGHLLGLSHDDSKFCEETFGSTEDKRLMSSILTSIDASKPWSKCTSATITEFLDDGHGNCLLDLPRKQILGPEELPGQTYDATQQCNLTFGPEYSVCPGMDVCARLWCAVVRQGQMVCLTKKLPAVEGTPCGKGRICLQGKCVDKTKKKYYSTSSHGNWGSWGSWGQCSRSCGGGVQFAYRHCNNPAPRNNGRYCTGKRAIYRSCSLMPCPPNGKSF
Assay: In vitro fluorescence screen for Aggrecanase-2 inhibitors
Type: biochemical
Details: Table 2; read-out: Agg 2 IC50

Some solved entries appear below for comparison.
molecule="COc1cccc(-c2ccc(C(=O)N[C@@H](CCC(=O)O)C(=O)NC(C)(C)Cc3ccc(F)cc3)cc2)c1 [Example 17EE]" data_value="194 nM"
molecule="CCOc1ccccc1-c1ccc(C(=O)N[C@@H](CCC(=O)O)C(=O)NCc2cc(OC)c(OC)c(OC)c2)cc1 [Example 17A]" data_value="1120 nM"
molecule="COc1cc(CNC(=O)[C@H](CCC(=O)O)NC(=O)c2ccc(Br)cc2)cc(OC)c1OC [Example 18D]" data_value="> 22000 nM"
molecule=C[C@@H](NC(=O)[C@H](CCC(=O)O)NC(=O)c1ccc(-c2ccccc2)cc1)c1ccccc1 data_value="2120 nM"
molecule="CCOc1cccc(-c2ccc(C(=O)N[C@@H](CCC(=O)O)C(=O)NC(C)(C)Cc3ccccc3)cc2)c1 [Example 17MM]" data_value="2710 nM"
molecule="COc1cc(CNC(=O)[C@H](CCC(=O)O)NC(=O)c2ccc(-c3ccc(-c4ccccc4)cc3)cc2)cc(OC)c1OC [Example 17II]" data_value="~10000 nM"
molecule="COc1cccc(OCc2ccc(-c3ccc(C(=O)N[C@@H](CCC(=O)O)C(=O)NC(C)(C)Cc4ccccc4)cc3)cc2)c1 [Example 15BB]" data_value="527 nM"
molecule=C[C@@H](NC(=O)[C@H](CCC(=O)O)NC(=O)c1ccc(-c2ccccc2)cc1)c1ccc(F)cc1 data_value="2010 nM"

Record IC50 per entry; entries follow.
1. O=C(O)CC[C@H](NC(=O)c1ccc(-c2cccc(CO)c2)cc1)C(=O)NCc1ccccc1 [Example 17JJ]
2. COc1cc(CNC(=O)[C@H](CCC(=O)O)NC(=O)c2ccc(-c3ccc(OCc4cc(C(F)(F)F)cc(C(F)(F)F)c4)cc3)cc2)cc(OC)c1OC [Example 19E]
3. O=C(O)CC[C@H](NC(=O)c1ccc(-c2ccc3[nH]ccc3c2)cc1)C(=O)NCC12CC3CC(CC(C3)C1)C2 [Example 17CC]
4. C[C@H](NC(=O)[C@H](CCC(=O)O)NC(=O)c1ccc(-c2ccccc2)cc1)c1ccccc1
5. O=C(O)CC[C@H](NC(=O)c1ccc(C#CC2(O)c3ccccc3-c3ccccc32)cc1)C(=O)NCc1ccccc1 [Example 12H]

Result:
["19500 nM", "1120 nM", "2970 nM", "2970 nM", "1630 nM"]

The following molecules each have a reported value; give each one's IC50.
1. C[C@@H](NC(=O)[C@H](CCC(=O)O)NC(=O)c1ccc2c(c1)Cc1ccccc1-2)c1ccccc1
2. COc1cccc(C#Cc2ccc(C(=O)N[C@@H](CCC(=O)O)C(=O)NCc3ccccc3)cc2)c1 [Example 12L]
3. CCOc1cccc(-c2ccc(C(=O)N[C@@H](CCC(=O)O)C(=O)NCc3cc(OC)c(OC)c(OC)c3)cc2)c1

Result:
1. 1560 nM
2. > 22000 nM
3. 467 nM
